Numbers sourced from paper PMC3794980.

- ASSAY_SYSTEM: DRB4*0101 (Homo sapiens, UniProt P01903+P13762, G164S)
- PROTOCOL_SUMMARY: biochemical
pIC50: −log10 of the molar value.
Decision: pIC50 compared against 6; not below it gives y, below it gives n.

Solved entries (count: 6):
COMPOUND	CLASS_ASSIGNMENT
CC[C@H](C)[C@H](NC(=O)[C@H](C)NC(=O)[C@@H](N)CCSC)C(=O)N[C@@H](CO)C(=O)NCC(=O)N[C@@H](CC(=O)O)C(=O)N[C@@H](CC(=O)O)C(=O)N[C@@H](CS)C(=O)N[C@H](C(=O)N[C@H](C(=O)N[C@@H](CCCCN)C(=O)N1CCC[C@H]1C(=O)N[C@H](C(=O)N[C@@H](CC(=O)O)C(=O)N[C@@H](CC(=O)O)C(=O)N[C@@H](CCCNC(=N)N)C(=O)N[C@@H](Cc1ccccc1)C(=O)O)[C@@H](C)CC)C(C)C)C(C)C [NS5 658-674]	n
CC[C@H](C)[C@H](NC(=O)[C@H](CC(=O)O)NC(=O)[C@H](CCSC)NC(=O)[C@@H](NC(=O)[C@@H](NC(=O)CNC(=O)[C@H](CCCCN)NC(=O)[C@@H]1CCCN1C(=O)[C@@H](NC(=O)[C@@H]1CCCN1)[C@@H](C)O)[C@@H](C)O)C(C)C)C(=O)N[C@H](C(=O)N[C@@H](CO)C(=O)N[C@@H](CCCNC(=N)N)C(=O)N[C@@H](CCCCN)C(=O)N[C@@H](CC(=O)O)C(=O)N[C@@H](CCC(N)=O)C(=O)N[C@@H](CCCNC(=N)N)C(=O)O)[C@@H](C)CC [NS5 582-598]	n
CC[C@H](C)[C@H](NC(=O)[C@H](CCC(=O)O)NC(=O)CNC(=O)[C@H](CCCNC(=N)N)NC(=O)[C@H](CCCCN)NC(=O)[C@@H](N)CC(C)C)C(=O)N[C@H](C(=O)N[C@@H](Cc1c[nH]cn1)C(=O)N[C@@H](Cc1c[nH]cn1)C(=O)N[C@@H](C)C(=O)N[C@H](C(=O)N[C@@H](CO)C(=O)N[C@@H](CCCNC(=N)N)C(=O)NCC(=O)N[C@@H](CO)C(=O)N[C@@H](C)C(=O)N[C@@H](CCCCN)C(=O)O)C(C)C)[C@@H](C)O [NS5 45-61]	y
CC[C@H](C)[C@H](NC(=O)[C@H](Cc1c[nH]c2ccccc12)NC(=O)[C@H](CCC(=O)O)NC(=O)[C@@H](N)CC(N)=O)C(=O)N[C@H](C(=O)N[C@@H](CC(=O)O)C(=O)N[C@@H](Cc1ccccc1)C(=O)N[C@@H](C)C(=O)NCC(=O)N[C@@H](CCCCN)C(=O)N[C@H](C(=O)N[C@H](C(=O)N[C@@H](Cc1c[nH]c2ccccc12)C(=O)N[C@@H](Cc1ccccc1)C(=O)N[C@H](C(=O)O)C(C)C)C(C)C)[C@@H](C)O)[C@@H](C)O [NS3 349-363]	n
CSCC[C@H](NC(=O)[C@H](CCC(N)=O)NC(=O)[C@H](C)NC(=O)[C@H](Cc1ccc(O)cc1)NC(=O)[C@H](C)NC(=O)[C@H](CCCCN)NC(=O)CNC(=O)[C@H](CC(C)C)NC(=O)[C@H](CS)NC(=O)[C@H](C)NC(=O)[C@@H](NC(=O)[C@H](CCC(=O)O)NC(=O)[C@H](CCCNC(=N)N)NC(=O)[C@H](CC(C)C)NC(=O)[C@@H](N)CO)[C@@H](C)O)C(=O)N[C@@H](Cc1c[nH]c2ccccc12)C(=O)N[C@H](C(=O)O)[C@@H](C)O [NS5 747-763]	n
CC(C)C[C@H](NC(=O)[C@H](CCCCN)NC(=O)CNC(=O)[C@H](CC(C)C)NC(=O)[C@@H](N)Cc1c[nH]cn1)C(=O)N[C@@H](CCC(=O)O)C(=O)N[C@@H](CC(C)C)C(=O)N[C@@H](CC(=O)O)C(=O)N[C@@H](Cc1ccccc1)C(=O)N[C@@H](CC(N)=O)C(=O)N[C@@H](Cc1ccc(O)cc1)C(=O)N[C@@H](CS)C(=O)N[C@@H](CCC(=O)O)C(=O)NCC(=O)N[C@H](C(=O)O)[C@@H](C)O [NS1 269-283]	y

Now take the following compound into account.
Ask | Could you tell me if the measured pIC50 of CC[C@H](C)[C@H](NC(=O)[C@H](CC(C)C)NC(=O)[C@H](CC(N)=O)NC(=O)[C@H](Cc1ccc(O)cc1)NC(=O)[C@H](CC(N)=O)NC(=O)[C@@H]1CCCN1)C(=O)N[C@H](C(=O)N[C@@H](CCSC)C(=O)N[C@@H](CC(=O)O)C(=O)N[C@@H](CCC(=O)O)C(=O)N[C@@H](C)C(=O)N[C@@H](Cc1c[nH]cn1)C(=O)N[C@@H](Cc1ccccc1)C(=O)N[C@H](C(=O)N[C@@H](CC(=O)O)C(=O)O)[C@@H](C)O)[C@@H](C)CC [NS3 277-291] reaches 6 or more?
Reply | y
